Reported pKi for target or system guinea pig histamine H4 receptor (Cavia porcellus), by entry.
Here pKi is given on a logarithmic scale as minus log10 of the concentration in mol/L.

Item under review: CNCCc1c[nH]cn1 . Reported pKi?
6.66

# iterate: NCCc1c[nH]cn1
7.57

Lookup N=C(N)SCCc1cnc[nH]1
7.52

Please do the same for NC(=NCc1ccc(Cl)cc1)SCCCc1cnc[nH]1 as well.
8.44

Quick one: C[C@@H](N)Cc1c[nH]cn1
6.31

Also need S=C(NC1CCCCC1)N1CCC(c2cnc[nH]2)CC1 [Thioperamide] , thanks.
7.08

###

Molecular target: guinea pig histamine H4 receptor (Cavia porcellus)
Property Name: pKd
# pKd: negative log10 of molar concentration; output just the value

Fill blank: measured pKd of the compound NCCc1cnc[nH]1 is ____.
7.70
